Every entry's value here was drawn from the RNAGym collection of RNA variant scans (doi:10.1073/pnas.2313332121).

Hi there, I'd appreciate the recorded polymerase ribozyme fitness (log ratio) for every entry that follows.
B1: TPR 5TU (parent)
chain: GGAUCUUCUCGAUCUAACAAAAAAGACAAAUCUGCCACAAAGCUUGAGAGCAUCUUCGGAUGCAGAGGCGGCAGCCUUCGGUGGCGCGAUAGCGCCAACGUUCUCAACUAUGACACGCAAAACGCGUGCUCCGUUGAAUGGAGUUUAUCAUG

Variants of: B1
Assay: polymerase ribozyme fitness, log enrichment relative to wild type (log ratio); higher = more active; in vitro selection for triplet polymerase activity
Variants at the floor of the assay were thinned out.
Numbers only.

* G126A G143A | -1.92
* A73G G128C | -3.67
* U55A C72U C76U U78C G84A | -2.57
* U56A C99U | -0.614
* C96U G141A | 0.0586
* A39G A147U | -0.693

# batch size: 7; output polymerase ribozyme fitness (log ratio) per entry
1. G50U A52G
2. A12U G84C
3. A150G
4. C8U G141C
5. C35U G83A
6. C93U A142C
7. G58C U61G U146G

Resp:
1. -0.0259
2. -2.67
3. -0.734
4. -2.78
5. -0.173
6. -0.842
7. -3.76
